# Tested on: CUG foci in primary DM1 patient myoblasts
# test.method.notes: Single-cut screening: FISH staining of CUG RNA foci
# Assay type: cell-based, human
# test.parameters: single sgRNA; primary DM1 patient myoblasts; vehicle
experimental.readout: % of CUG foci free nuclei (Vehicle) (%)
Give a bare numeral; the unit % is implied.

q: Give CUG foci in primary DM1 patient myoblasts % of CUG foci free nuclei (Vehicle) for CCAGTTCACAACCGCTCCGAGC (guide RNA; chemistry not fully specified) [SluU22]
a: 27.56

q: Give CUG foci in primary DM1 patient myoblasts % of CUG foci free nuclei (Vehicle) for CCCCGTTGGAAGACTGAGTGCC (guide RNA; chemistry not fully specified) [SluU09]
a: 26.05

q: Give CUG foci in primary DM1 patient myoblasts % of CUG foci free nuclei (Vehicle) for ACCTCGTCCTCCGACTCGCTGA (guide RNA; chemistry not fully specified) [SluD65]
a: 18.5

q: Give CUG foci in primary DM1 patient myoblasts % of CUG foci free nuclei (Vehicle) for GCTAGGGGGCGGGCCCGGATCA (guide RNA; chemistry not fully specified) [SluU34]
a: 19.95

q: Give CUG foci in primary DM1 patient myoblasts % of CUG foci free nuclei (Vehicle) for ATTTCTTTCTTTCGGCCAGGCT (guide RNA; chemistry not fully specified) [SluD03]
a: 14.38

q: Give CUG foci in primary DM1 patient myoblasts % of CUG foci free nuclei (Vehicle) for CACTTTGCGAACCAACGATAGG (guide RNA; chemistry not fully specified) [SluD27]
a: 7.6

q: Give CUG foci in primary DM1 patient myoblasts % of CUG foci free nuclei (Vehicle) for GGTCGGGGGTGGGGGTCCTAGG (guide RNA; chemistry not fully specified) [SluD86]
a: 11.98

q: Give CUG foci in primary DM1 patient myoblasts % of CUG foci free nuclei (Vehicle) for AGACAATAAATACCGAGGAATG (guide RNA; chemistry not fully specified) [SluD82]
a: 14.98

###

# System: CUG foci in primary DM1 patient myoblasts
# test.method.notes: Single-cut screening: FISH staining of CUG RNA foci
# Format: cell-based, human
# test.parameters: single sgRNA; primary DM1 patient myoblasts; vehicle
Below, each entry is listed with its recorded % of CUG foci free nuclei (Vehicle).
Give a bare numeral; the unit % is implied.

Recorded % of CUG foci free nuclei (Vehicle), per entry:
q: Give CUG foci in primary DM1 patient myoblasts % of CUG foci free nuclei (Vehicle) for CTTCGAgccccgttcgccggcc (guide RNA; as printed in the source, key not given here) [SluU61]
a: 17.78

q: Give CUG foci in primary DM1 patient myoblasts % of CUG foci free nuclei (Vehicle) for ACAATAAATACCGAGGAATGTC (guide RNA; chemistry not fully specified) [SluD80]
a: 11.92

q: Give CUG foci in primary DM1 patient myoblasts % of CUG foci free nuclei (Vehicle) for CAGGCTGAGGCCCTGACGTGGA (guide RNA; chemistry not fully specified) [SluD07]
a: 12.52

With those in mind, consider the next substance.
q: Give CUG foci in primary DM1 patient myoblasts % of CUG foci free nuclei (Vehicle) for TGCGCTGCTCTCGGAGCCCCAG (guide RNA; chemistry not fully specified) [SluD54]
a: 10.7

###

Below, each entry is listed with its recorded % of CUG foci free nuclei (DNA-PKi).
# System: CUG foci in primary DM1 patient myoblasts
# test.method.notes: Single-cut screening: FISH staining of CUG RNA foci
# Assay type: cell-based, human
# test.parameters: single sgRNA; primary DM1 patient myoblasts; DNA-PKi treated
# Protocol: Primary healthy myoblasts (P01431-18F) and DM1 patient myoblasts (03001-32F) were obtained from Cook MyoSite. Myoblasts were cultured in myoblast growth medium consisting of Myotonic Basal Medium (Cook MyoSite, MB-2222) and MyoTonic Growth Supplement (Cook MyoSite, MS-3333). […]
Give a bare numeral; the unit % is implied.

Recorded % of CUG foci free nuclei (DNA-PKi), per entry:
q: Give its % of CUG foci free nuclei (DNA-PKi) value. Item: gccccgttcgccggccgcggac (guide GCCCCGTTCGCCGGCCGCGGAC; listed as DNA, chemistry not fully specified) [SluU58]
a: 49.37

q: Give its % of CUG foci free nuclei (DNA-PKi) value. Item: TTTTATTCGCGAGGGTCGGGGG (guide RNA; chemistry not fully specified) [SluD92]
a: 24.03

q: Give its % of CUG foci free nuclei (DNA-PKi) value. Item: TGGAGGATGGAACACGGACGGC (listed as DNA, chemistry not fully specified) [SluD18]
a: 31.47

q: Give its % of CUG foci free nuclei (DNA-PKi) value. Item: AAAACGTGGATTGGGGTTGTTG (guide RNA; chemistry not fully specified) [SluD71]
a: 23.51

q: Give its % of CUG foci free nuclei (DNA-PKi) value. Item: CGGATCACAGGACTGGAGCTGG (guide RNA; chemistry not fully specified) [SluU29]
a: 48.49

Further cases:
q: Give its % of CUG foci free nuclei (DNA-PKi) value. Item: TGCACTGAGACCCCGACATTCC (guide RNA; chemistry not fully specified) [SluD79]
a: 25.61

q: Give its % of CUG foci free nuclei (DNA-PKi) value. Item: AATAAATATCCAAACCGCCGAA (guide RNA; chemistry not fully specified) [SluD64]
a: 32.65
